This collection of values is drawn from patent US12545672B2.

system_tested: Neisseria gonorrhoeae FabI (Neisseria gonorrhoeae, UniProt A0ACH0F547)
Sequence (A0ACH0F547 1-261): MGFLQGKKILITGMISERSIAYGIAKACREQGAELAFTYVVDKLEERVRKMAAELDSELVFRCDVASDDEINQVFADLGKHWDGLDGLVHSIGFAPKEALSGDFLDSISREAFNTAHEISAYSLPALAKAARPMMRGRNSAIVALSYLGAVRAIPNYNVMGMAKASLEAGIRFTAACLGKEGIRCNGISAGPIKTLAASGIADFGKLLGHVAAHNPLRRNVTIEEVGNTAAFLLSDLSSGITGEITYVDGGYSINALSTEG
test_protocol: Neisseria gonorrhoeae FabI inhibition assay (NADH consumption)
pIC50: −log10 of the molar value.
Overview of recorded pIC50 for various molecules

Example cases with answers are listed next.
[
  {
    "molecule": "Cc1c(CN(C)C(=O)/C=C/c2cnc3c(c2)NC[C@H](O)C(=O)N3)oc2cccc(N)c12",
    "measured_endpoint": "pIC50",
    "measured": "> 8.00"
  },
  {
    "molecule": "Cc1c(CN(C)C(=O)/C=C/c2cnc3c(c2)NCC(=O)N3)oc2ccccc12",
    "measured_endpoint": "pIC50",
    "measured": "> 8.00"
  }
]

# context switch: different molecule, same pIC50
pIC50 measured on Cc1c(CN(C)C(=O)/C=C/c2cnc3c(c2)N[C@H](C)[C@@](C)(O)C(=O)N3)oc2ccccc12 (racemic) = > 8.00

---

System: Neisseria gonorrhoeae
test_protocol: MIC50 by CLSI agar dilution on a panel of N. gonorrhoeae clinical isolates
Type: cell-based
experimental_conditions: Neisseria gonorrhoeae; agar dilution, GC agar base, minimum of 15 clinical isolates; read-out: MIC50
Overview of recorded MIC50 for various compounds

Example cases with answers are listed next.
[
  {
    "compound": "Cc1oc2ccccc2c1CN(C)C(=O)/C=C/c1cnc2c(c1)N[C@H](C)[C@H](O)C(=O)N2 (single isomer, unassigned)",
    "MIC50": "< 1 µg/mL"
  },
  {
    "compound": "CCC1(O)Cc2cc(/C=C/C(=O)N(C)Cc3oc4ccccc4c3C)cnc2NC1=O (stereo not shown)",
    "MIC50": "< 1 µg/mL"
  },
  {
    "compound": "Cc1oc2c(N)cccc2c1CN(C)C(=O)/C=C/c1cnc2c(c1)N[C@H](C)[C@H](O)C(=O)N2",
    "MIC50": "< 1 µg/mL"
  }
]

# context switch: different compound, same MIC50
MIC50 measured on COc1cccc(Oc2cccc3c(CN(C)C(=O)/C=C/c4cnc5c(c4)CCCC(=O)N5)c(C)sc23)c1 = < 1 µg/mL

---

system_tested: Neisseria gonorrhoeae FabI (Neisseria gonorrhoeae, UniProt A0ACH0F547)
test_protocol: Neisseria gonorrhoeae FabI inhibition assay (NADH consumption)
experimental_conditions: read-out: ngFabI IC50; recombinant N. gonorrhoeae FabI, 30° C., pH 7.2
measured_endpoint: IC50

IC50 measured on O=C1CCNc2cc(/C=C/C(=O)N3C[C@H]4CC(c5ccc(Oc6ccncc6)cc5)=C[C@H]4C3)cnc2N1 (racemic) [Compound 90] = < 10 nM
